experiment: chemical genetic growth profiling, strain panel (AID 1159580);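 further: tested at 20 µM; growth read once vehicle control cultures reached saturation at 30 °C; 1 = growth at the plate median or of vehicle wells; lower values mean less growth of the strain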; settings: S. cerevisiae deletion strains, growth OD, locus YDL040C, strain nat1, active compounds read low
The campaign covered roughly 5,500 compounds. About 2,000 (36%) were called active. Inconclusive results (about 18%) are left out. The list shows a part of the results.
# normalized growth per entry

Previously resolved entries follow.
O=C1c2ccccc2C(=O)c2ccccc21 | 0.988 (inactive)
C=C(C)C1Cc2c(ccc3c(=O)c4c(oc23)COc2cc(OC)c(OC)cc2-4)O1 (centres undefined) | 0.991 (inactive)
O=C(/C=C/c1ccc(O)cc1)c1ccc(O)cc1O | 1 (inactive)
CC(C)N1C(=O)c2ccccc2NS1(=O)=O | 0.972 (inactive)
O=C(O)C1=C(CSc2nnnn2CS(=O)(=O)O)CS[C@@H]2C(NC(=O)[C@H](O)c3ccccc3)C(=O)N12 (some centres undefined) | 0.989 (inactive)

Now consider a different compound.
Fill in reported normalized growth for this entry: C[C@H]1C(=O)CCC2[C@]3(C)CC[C@@]4(C)C5CC(C)(C)CC[C@]5(C)CC[C@]4(C)C3CC[C@@]21C (some centres undefined)
1.01 (inactive)
